Listed next: entries and their corresponding pIC50.
Assayed Target: TRPC5 (Homo sapiens, UniProt Q9UL62)
Construct: expressed in transfected cells; host or cells: HEK 293
Sequence (Q9UL62 whole entry): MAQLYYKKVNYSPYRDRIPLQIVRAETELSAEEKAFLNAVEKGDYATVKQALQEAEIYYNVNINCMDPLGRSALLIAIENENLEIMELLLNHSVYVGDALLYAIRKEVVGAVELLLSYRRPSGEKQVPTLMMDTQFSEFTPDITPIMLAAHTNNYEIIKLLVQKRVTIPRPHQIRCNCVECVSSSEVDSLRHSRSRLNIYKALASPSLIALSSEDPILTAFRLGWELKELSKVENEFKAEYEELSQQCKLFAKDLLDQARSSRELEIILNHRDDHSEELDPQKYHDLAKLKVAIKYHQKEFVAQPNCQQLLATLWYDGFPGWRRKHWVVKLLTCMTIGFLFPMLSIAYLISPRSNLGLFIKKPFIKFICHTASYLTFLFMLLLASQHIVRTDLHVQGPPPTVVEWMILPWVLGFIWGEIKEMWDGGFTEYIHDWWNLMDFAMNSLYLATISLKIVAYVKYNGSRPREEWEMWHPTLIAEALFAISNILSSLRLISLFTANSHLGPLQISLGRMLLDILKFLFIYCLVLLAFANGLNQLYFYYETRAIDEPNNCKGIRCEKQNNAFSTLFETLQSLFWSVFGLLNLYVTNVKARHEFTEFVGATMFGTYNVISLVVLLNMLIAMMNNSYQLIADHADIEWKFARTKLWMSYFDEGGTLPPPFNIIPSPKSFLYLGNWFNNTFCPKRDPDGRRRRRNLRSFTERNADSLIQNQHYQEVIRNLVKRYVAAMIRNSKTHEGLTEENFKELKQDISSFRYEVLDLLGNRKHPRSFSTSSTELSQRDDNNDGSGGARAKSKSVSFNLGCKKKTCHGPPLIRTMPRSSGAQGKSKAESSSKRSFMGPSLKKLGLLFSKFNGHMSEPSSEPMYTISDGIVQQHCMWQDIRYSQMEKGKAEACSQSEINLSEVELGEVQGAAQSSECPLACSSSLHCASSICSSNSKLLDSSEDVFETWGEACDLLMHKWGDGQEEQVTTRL
Assay Protocol: TRPC5 automated patch clamp assay (Qpatch), current block after rosiglitazone stimulation
Type: cell-based
Assay Context: Table 3; HEK293 cells overexpressing TRPC5; rosiglitazone stimulation; 80 mV; read-out: TRPC5_QP_ XC50_80
Procedure: HEK 293 cells expressing human TRPC5 were harvested, re-suspended in serum free medium, and added to the automated platform and used within 2-3 hours. Internal and external physiological solutions were freshly prepared prior to the assay. […] The automated electrophysiological platform QPatch 16 from Sophion (Denmark) was used to carry out the compounds profiling. The series resistance and quality of seals were continuously monitored during the experiments. […]
pIC50: −log10 of the molar value.

{"columns": ["Compound", "Assayed Target", "pIC50"],
 "data": [
  ["O=c1[nH]ncc(N2CCN(Cc3c(F)cccc3F)CC2)c1Cl", "TRPC5 (Homo sapiens, UniProt Q9UL62)", "5.30 to 6.00"],
  ["Cc1ccccc1CN1CCN(c2cn[nH]c(=O)c2Br)C(C)C1 (stereo not shown) [drawing 647]", "TRPC5 (Homo sapiens, UniProt Q9UL62)", "5.30 to 6.00"],
  ["Cc1ccccc1CN1CCN(c2cn[nH]c(=O)c2C#CC(C)C)CC1=O", "TRPC5 (Homo sapiens, UniProt Q9UL62)", "3.30 to 5.00"],
  ["O=C1CN(c2cn[nH]c(=O)c2Cl)CCN1Cc1ccc(F)cc1F [drawing 686]", "TRPC5 (Homo sapiens, UniProt Q9UL62)", "5.30 to 6.00"],
  ["O=c1[nH]ncc(N2CCN(Cc3ccc(Cl)cc3F)CC2)c1Cl", "TRPC5 (Homo sapiens, UniProt Q9UL62)", "5.00 to 5.30"],
  ["Cc1ccccc1C(C)N1CCN(c2cn[nH]c(=O)c2Br)CC1 (stereo not shown)", "TRPC5 (Homo sapiens, UniProt Q9UL62)", "5.30 to 6.00"],
  ["Cc1ccccc1CN1CCN(c2cn[nH]c(=O)c2C)CC1=O", "TRPC5 (Homo sapiens, UniProt Q9UL62)", "5.00 to 5.30"],
  ["O=C1CN(c2cn[nH]c(=O)c2Cl)CCN1Cc1ccc(F)cc1Cl [drawing 682]", "TRPC5 (Homo sapiens, UniProt Q9UL62)", "5.30 to 6.00"],
  ["O=c1[nH]ncc(N2CCN(Cc3ccc(C(F)(F)F)cc3)CC2)c1Cl", "TRPC5 (Homo sapiens, UniProt Q9UL62)", "3.30 to 5.00"],
  ["Cc1ccccc1CN1CCN(c2cn[nH]c(=O)c2Br)CC1C (stereo not shown) [drawing 649]", "TRPC5 (Homo sapiens, UniProt Q9UL62)", "3.30 to 5.00"]
]}

###

Assayed Target: TRPC5 (Homo sapiens)
Construct: expressed in transfected cells; host or cells: HEK 293
Assay Protocol: TRPC5 automated patch clamp assay (Qpatch), current block after rosiglitazone stimulation
Assay type: cell-based
Assay Context: Table 5; HEK293 cells overexpressing TRPC5; rosiglitazone stimulation; 80 mV; read-out: TRPC5_QP_ XC50_80
Method: HEK 293 cells expressing human TRPC5 were harvested, re-suspended in serum free medium, and added to the automated platform and used within 2-3 hours. Internal and external physiological solutions were freshly prepared prior to the assay. […] The automated electrophysiological platform QPatch 16 from Sophion (Denmark) was used to carry out the compounds profiling. The series resistance and quality of seals were continuously monitored during the experiments. […]
pIC50: −log10 of the molar value.

{"columns": ["Molecular String", "Assayed Target", "pIC50"],
 "data": [
  ["Cc1cc(F)ccc1CN1CCN(c2c(Br)n[nH]c(=O)c2Cl)CC1", "TRPC5 (Homo sapiens)", "3.30 to 5.00"],
  ["O=C1CN(c2cn[nH]c(=O)c2Cl)CCN1Cc1cccnc1Oc1ccccc1", "TRPC5 (Homo sapiens)", "5.00 to 5.30"],
  ["Cc1cc(F)ccc1CN1CCN(c2cc(=O)[nH]nc2C)CC1=O", "TRPC5 (Homo sapiens)", "3.30 to 5.00"],
  ["Cc1ccccc1CN1CC2(CCN(c3cn[nH]c(=O)c3Cl)CC2)C1", "TRPC5 (Homo sapiens)", "5.30 to 6.00"],
  ["O=C1CN(c2cn[nH]c(=O)c2Cl)CCN1Cc1ccc(OC(F)(F)F)cc1", "TRPC5 (Homo sapiens)", "5.30 to 6.00"],
  ["CCn1nc(CN2CCN(c3cn[nH]c(=O)c3Cl)CC2)c2ccccc21", "TRPC5 (Homo sapiens)", "3.30 to 5.00"],
  ["CCCOc1n[nH]c(=O)cc1N1CCN(Cc2ccc(F)cc2C)CC1", "TRPC5 (Homo sapiens)", "3.30 to 5.00"],
  ["O=C1CN(c2cn[nH]c(=O)c2Cl)CCN1Cc1ccc(F)cc1C(F)(F)F", "TRPC5 (Homo sapiens)", "6.00 to 11.00"],
  ["COc1cc(F)ccc1CN1CCN(c2c(Cl)cn[nH]c2=O)CC1=O", "TRPC5 (Homo sapiens)", "3.30 to 5.00"],
  ["O=C1CN(c2c(Cl)cn[nH]c2=O)CCN1Cc1ccc(OC(F)(F)F)cc1", "TRPC5 (Homo sapiens)", "3.30 to 5.00"]
]}
